Species: Rattus norvegicus
Test: Selectivity ratio of Ki for dopamine D1 like receptor in rat brain homogenates to Ki for dopamine D3 receptor in rat brain homogenates
Assay type: tissue-based
Form field: Ratio Ki (one value per entry).
Could you keep your reply to the number by itself?

molecule_smiles | Ratio Ki
CCCN(CC[C@H]1CC[C@H](NC(=O)c2ccc(-n3cncn3)cc2)CC1)[C@H]1CCc2nc(N)sc2C1 | 5960
CCCN(CC[C@H]1CC[C@H](NS(=O)(=O)c2ccc(C(C)C)cc2)CC1)[C@H]1CCc2nc(N)sc2C1 | 1810
CCCN(CC[C@H]1CC[C@H](NC(=O)c2ccc(-n3ccnc3)cc2)CC1)[C@H]1CCc2nc(N)sc2C1 | 19900

Quick note, Ratio Ki for "CCCN(CC[C@H]1CC[C@H](NC(=O)c2cccc(-n3ccnc3)c2)CC1)[C@H]1CCc2nc(N)sc2C1" landed at 21800

Quick note, Ratio Ki for "CCCN(CC[C@H]1CC[C@H](NC(=O)c2cccc(-c3noc(C)n3)c2)CC1)[C@H]1CCc2nc(N)sc2C1" landed at 13700

Quick note, Ratio Ki for "CCCN(CC[C@H]1CC[C@H](NC(=O)c2cccc(-n3cncn3)c2)CC1)[C@H]1CCc2nc(N)sc2C1" landed at 19900

Quick note, Ratio Ki for "CCCN(CC[C@H]1CC[C@H](NS(=O)(=O)c2ccc(OC)cc2)CC1)[C@H]1CCc2nc(N)sc2C1" landed at 27500

----------
Form field: pKi (one value per entry).
Experiment: Displacement of [3H]Spiperone from dopamine D2 like receptor in rat brain homogenates
Format: tissue-based
In plain terms, pKi is the concentration in mol/L turned into minus its base-10 logarithm.

Past entries and their recorded results:
molecule_smiles | property_name | observed_result
CCCN(CC[C@H]1CC[C@H](NC(=O)/C=C/c2ccccc2Cl)CC1)[C@H]1CCc2nc(N)sc2C1 | pKi | 7.52
CCCN(CC[C@H]1CC[C@H](NC(=O)c2cccc3cnccc23)CC1)[C@H]1CCc2nc(N)sc2C1 | pKi | 7.19
CCCN(CC[C@H]1CC[C@H](NS(=O)(=O)c2cccc(C)c2)CC1)[C@H]1CCc2nc(N)sc2C1 | pKi | 7.21
CCCN(CC[C@H]1CC[C@H](NC(=O)/C=C/c2ccc(Cl)cc2)CC1)[C@H]1CCc2nc(N)sc2C1 | pKi | 7.57

Quick note, pKi for "CCCN(CC[C@H]1CC[C@H](NC(=O)/C=C/c2cccc(F)c2)CC1)[C@H]1CCc2nc(N)sc2C1" landed at 7.10

Quick note, pKi for "CCCN(CC[C@H]1CC[C@H](NC(=O)/C=C/c2ccc(F)cc2)CC1)[C@H]1CCc2nc(N)sc2C1" landed at 7.18

Quick note, pKi for "CCCN(CC[C@H]1CC[C@H](NS(=O)(=O)c2cccnc2Cl)CC1)[C@H]1CCc2nc(N)sc2C1" landed at 6.77

Quick note, pKi for "CCCN(CC[C@H]1CC[C@H](NC(=O)c2ccccc2-n2cccn2)CC1)[C@H]1CCc2nc(N)sc2C1" landed at 7.35

Quick note, pKi for "CCCN(CC[C@H]1CC[C@H](NC(=O)/C=C/c2ccccc2F)CC1)[C@H]1CCc2nc(N)sc2C1" landed at 7.04

Quick note, pKi for "CCCN(CC[C@H]1CC[C@H](NC(=O)/C=C/c2cccc(Cl)c2)CC1)[C@H]1CCc2nc(N)sc2C1" landed at 7.28

Quick note, pKi for "CCCN(CC[C@H]1CC[C@H](NS(=O)(=O)c2ccc(-c3ccccc3)cc2)CC1)[C@H]1CCc2nc(N)sc2C1" landed at 7.12

----------
Assay: Displacement of [3H]Spiperone from dopamine D2 like receptor in rat brain homogenates
Assay type: tissue-based
Form field: pKi (one value per entry).
In plain terms, pKi is the concentration in mol/L turned into minus its base-10 logarithm.

Past entries and their recorded results:
molecule_smiles | pKi
CCCN(CC[C@H]1CC[C@H](NC(=O)c2ccc(-n3cccn3)cc2)CC1)[C@H]1CCc2nc(N)sc2C1 | 7.28
CCCN(CC[C@H]1CC[C@H](NS(=O)(=O)c2ccc(C(C)(C)C)cc2)CC1)[C@H]1CCc2nc(N)sc2C1 | 7.00

// switching to the query compound
Quick note, pKi for "CCCN(CC[C@H]1CC[C@H](NC(=O)c2cccc(-n3ccnc3)c2)CC1)[C@H]1CCc2nc(N)sc2C1" landed at 7.49

----------
Test: Displacement of [3H]Spiperone from dopamine D2 like receptor in rat brain homogenates
Type: tissue-based
property_name: pKi
In plain terms, pKi is the concentration in mol/L turned into minus its base-10 logarithm.

Past entries and their recorded results:
molecule_smiles | observed_result
CCCN(CC[C@H]1CC[C@H](NC(=O)/C=C/c2ccccc2OC)CC1)[C@H]1CCc2nc(N)sc2C1 | 6.99
CCCN(CC[C@H]1CC[C@H](NS(=O)(=O)c2ccc(Cl)cc2)CC1)[C@H]1CCc2nc(N)sc2C1 | 7.15
CCCN(CC[C@H]1CC[C@H](NS(=O)(=O)c2ccc(OC)cc2)CC1)[C@H]1CCc2nc(N)sc2C1 | 7.42
CCCN(CC[C@H]1CC[C@H](NC(=O)c2ccc(-c3noc(C(C)C)n3)cc2)CC1)[C@H]1CCc2nc(N)sc2C1 | 6.33
CCCN(CC[C@H]1CC[C@H](NS(=O)(=O)c2ccccc2)CC1)[C@H]1CCc2nc(N)sc2C1 | 7.24

Quick note, pKi for "CCCN(CC[C@H]1CC[C@H](NC(=O)c2ccc(-c3noc(C4CC4)n3)cc2)CC1)[C@H]1CCc2nc(N)sc2C1" landed at 6.20

Quick note, pKi for "CCCN(CC[C@H]1CC[C@H](NC(=O)/C=C/c2cccc(OC)c2)CC1)[C@H]1CCc2nc(N)sc2C1" landed at 6.91

----------
Assay: Displacement of [3H]SCH23390 from dopamine D1 like receptor in rat brain homogenates
Assay type: tissue-based
Could you please mark class 1 for values of Ki below 10 µM and class 0 for values at or above it?

molecule_smiles | discrete_label
CCCN(CC[C@H]1CC[C@H](NC(=O)c2ccc(-n3ccnc3)cc2)CC1)[C@H]1CCc2nc(N)sc2C1 | class 0

Incoming: Please indicate whether the reported Ki of "CCCN(CC[C@H]1CC[C@H](NS(=O)(=O)c2cnccc2Cl)CC1)[C@H]1CCc2nc(N)sc2C1" is strictly below 10 µM.
Outgoing: class 0

Incoming: Please indicate whether the reported Ki of "CCCN(CC[C@H]1CC[C@H](NC(=O)/C=C/c2cccc(OC)c2)CC1)[C@H]1CCc2nc(N)sc2C1" is strictly below 10 µM.
Outgoing: class 1

Incoming: Please indicate whether the reported Ki of "CCCN(CC[C@H]1CC[C@H](NC(=O)c2ccc(-c3noc(C)n3)cc2)CC1)[C@H]1CCc2nc(N)sc2C1" is strictly below 10 µM.
Outgoing: class 0

Incoming: Please indicate whether the reported Ki of "CCCN(CC[C@H]1CC[C@H](NS(=O)(=O)c2cccc(Cl)c2)CC1)[C@H]1CCc2nc(N)sc2C1" is strictly below 10 µM.
Outgoing: class 1

Incoming: Please indicate whether the reported Ki of "CCCN(CC[C@H]1CC[C@H](NS(=O)(=O)c2ccc3ccccc3c2)CC1)[C@H]1CCc2nc(N)sc2C1" is strictly below 10 µM.
Outgoing: class 1

----------
Test: Displacement of [3H]SCH23390 from dopamine D1 like receptor in rat brain homogenates
Assay type: tissue-based
Form field: pKi (one value per entry).
In plain terms, pKi is the concentration in mol/L turned into minus its base-10 logarithm.

Past entries and their recorded results:
molecule_smiles | property_name | observed_result
CCCN(CC[C@H]1CC[C@H](NS(=O)(=O)c2ccc(C(C)C)cc2)CC1)[C@H]1CCc2nc(N)sc2C1 | pKi | 5.09
CCCN(CC[C@H]1CC[C@H](NC(=O)c2ccc(-c3noc(C(C)C)n3)cc2)CC1)[C@H]1CCc2nc(N)sc2C1 | pKi | 4.96

// switching to the query compound
Quick note, pKi for "CCCN(CC[C@H]1CC[C@H](NS(=O)(=O)c2ccc(Cl)cc2)CC1)[C@H]1CCc2nc(N)sc2C1" landed at 5.08

----------
Form field: Ratio Ki (one value per entry).
Species on record: Rattus norvegicus
Assay: Selectivity ratio of Ki for dopamine D1 like receptor in rat brain homogenates to Ki for dopamine D3 receptor in rat brain homogenates
Type: tissue-based

Past entries and their recorded results:
molecule_smiles | observed_result
CCCN(CC[C@H]1CC[C@H](NS(=O)(=O)c2cccnc2Cl)CC1)[C@H]1CCc2nc(N)sc2C1 | 46300
CCCN(CC[C@H]1CC[C@H](NS(=O)(=O)c2cccc3ccccc23)CC1)[C@H]1CCc2nc(N)sc2C1 | 3160
CCCN(CC[C@H]1CC[C@H](NS(=O)(=O)c2ccc(-c3ccccc3)cc2)CC1)[C@H]1CCc2nc(N)sc2C1 | 44
CCCN(CC[C@H]1CC[C@H](NS(=O)(=O)c2cccc(C)c2)CC1)[C@H]1CCc2nc(N)sc2C1 | 9470
CCCN(CC[C@H]1CC[C@H](NC(=O)c2ccc(-c3noc(CC)n3)cc2)CC1)[C@H]1CCc2nc(N)sc2C1 | 8380

Quick note, Ratio Ki for "CCCN(CC[C@H]1CC[C@H](NC(=O)c2ccc3ccccc3n2)CC1)[C@H]1CCc2nc(N)sc2C1" landed at 6050

Quick note, Ratio Ki for "CCCN(CC[C@H]1CC[C@H](NC(=O)c2ccc(-c3noc(C(C)C)n3)cc2)CC1)[C@H]1CCc2nc(N)sc2C1" landed at 5370

Quick note, Ratio Ki for "CCCN(CC[C@H]1CC[C@H](NC(=O)c2cccc(-c3noc(CC)n3)c2)CC1)[C@H]1CCc2nc(N)sc2C1" landed at 3450
